# Test system: SW 900
# Test Protocol: relative viability (nuclei count vs DMSO), 5 days (fraction); higher = more cells survive
# Protocol Conditions: first compound 0.005 µM
Measure Name: relative viability
Give only the figure.

Problem: What does the record list as relative viability for COc1cc2nccc(Oc3ccc(NC(=O)Nc4cc(C)on4)c(Cl)c3)c2cc1OC [Tivozanib] + N=C(N)NC(=N)NCCc1ccccc1 [Phenformin] (partner 250 µM) ?
Result: 0.554

Problem: Entry to check: COc1cc2nccc(Oc3ccc(NC(=O)Nc4cc(C)on4)c(Cl)c3)c2cc1OC [Tivozanib] + NC(=O)Nc1cc(-c2cccc(F)c2)sc1C(=O)N[C@H]1CCCNC1 [AZD7762] (partner 0.2 µM)
Result: 0.649

Problem: Entry to check: Nc1ccn([C@@H]2O[C@H](CO)[C@@H](O)[C@@H]2O)c(=O)n1 [Cytarabine] + Cc1cc(Nc2cc(N3CCN(C)CC3)nc(Sc3ccc(NC(=O)C4CC4)cc3)n2)n[nH]1 [Tozasertib] (partner 0.1 µM)
Result: 0.555

###

# Test system: ABC-1
# Test Protocol: relative viability (nuclei count vs DMSO), 5 days (fraction); higher = more cells survive
# Protocol Conditions: first compound 2.53 µM
Hi! Could you tag entries with relative viability below 0.4 as Criterion met, and those at or above as Criterion not met? Much appreciated.

Problem: # check: relative viability < 0.4 for Cc1cnc(-c2cnc(NCCNc3ccc(C#N)cn3)nc2-c2ccc(Cl)cc2Cl)[nH]1 + N=C(N)NC(=N)NCCc1ccccc1 [Phenformin] (partner 250 µM)
Result: Criterion met

Problem: Entry to check: O=c1[nH]c2ccccc2n1C1CCN(CCCC(c2ccc(F)cc2)c2ccc(F)cc2)CC1 [Pimozide] + COc1cccc2cc(-c3nc([C@H]4CC[C@H](C(=O)O)CC4)n4ncnc(N)c34)[nH]c12 [OSI-027] (partner 0.5 µM)
Result: Criterion met

Problem: Entry to check: Cc1cnc(-c2cnc(NCCNc3ccc(C#N)cn3)nc2-c2ccc(Cl)cc2Cl)[nH]1 + Cc1cc(Nc2cc(N3CCN(C)CC3)nc(Sc3ccc(NC(=O)C4CC4)cc3)n2)n[nH]1 [Tozasertib] (partner 0.1 µM)
Result: Criterion met

Problem: Entry to check: Cc1cnc(-c2cnc(NCCNc3ccc(C#N)cn3)nc2-c2ccc(Cl)cc2Cl)[nH]1 + CS(=O)(=O)N1CCN(Cc2cc3nc(-c4cccc5[nH]ncc45)nc(N4CCOCC4)c3s2)CC1 [Pictilisib] (partner 1 µM)
Result: Criterion not met

Problem: Entry to check: Cc1cnc(-c2cnc(NCCNc3ccc(C#N)cn3)nc2-c2ccc(Cl)cc2Cl)[nH]1 + Cc1nc(Nc2ncc(C(=O)Nc3c(C)cccc3Cl)s2)cc(N2CCN(CCO)CC2)n1 [Dasatinib] (partner 0.075 µM)
Result: Criterion not met

Problem: Entry to check: O=c1[nH]c2ccccc2n1C1CCN(CCCC(c2ccc(F)cc2)c2ccc(F)cc2)CC1 [Pimozide] + CC(C)C[C@H](NC(=O)[C@H](Cc1ccccc1)NC(=O)c1cnccn1)B(O)O [Bortezomib] (partner 0.002 µM)
Result: Criterion met

Problem: Entry to check: O=c1[nH]c2ccccc2n1C1CCN(CCCC(c2ccc(F)cc2)c2ccc(F)cc2)CC1 [Pimozide] + Cc1cc(Nc2cc(N3CCN(C)CC3)nc(Sc3ccc(NC(=O)C4CC4)cc3)n2)n[nH]1 [Tozasertib] (partner 0.1 µM)
Result: Criterion met

Problem: Entry to check: O=c1[nH]c2ccccc2n1C1CCN(CCCC(c2ccc(F)cc2)c2ccc(F)cc2)CC1 [Pimozide] + O=C(CCCCCCC(=O)Nc1ccccc1)NO [Vorinostat] (partner 1 µM)
Result: Criterion not met

Problem: Entry to check: O=c1[nH]c2ccccc2n1C1CCN(CCCC(c2ccc(F)cc2)c2ccc(F)cc2)CC1 [Pimozide] + N=C(N)NC(=N)NCCc1ccccc1 [Phenformin] (partner 250 µM)
Result: Criterion met

Recorded values, source the supplement of paper PMC10307832.
